# systemName: human ether-à-go-go-related gene (hERG) potassium channel (human, UniProt Q12809)
# Sequence (Q12809 whole entry, looked up): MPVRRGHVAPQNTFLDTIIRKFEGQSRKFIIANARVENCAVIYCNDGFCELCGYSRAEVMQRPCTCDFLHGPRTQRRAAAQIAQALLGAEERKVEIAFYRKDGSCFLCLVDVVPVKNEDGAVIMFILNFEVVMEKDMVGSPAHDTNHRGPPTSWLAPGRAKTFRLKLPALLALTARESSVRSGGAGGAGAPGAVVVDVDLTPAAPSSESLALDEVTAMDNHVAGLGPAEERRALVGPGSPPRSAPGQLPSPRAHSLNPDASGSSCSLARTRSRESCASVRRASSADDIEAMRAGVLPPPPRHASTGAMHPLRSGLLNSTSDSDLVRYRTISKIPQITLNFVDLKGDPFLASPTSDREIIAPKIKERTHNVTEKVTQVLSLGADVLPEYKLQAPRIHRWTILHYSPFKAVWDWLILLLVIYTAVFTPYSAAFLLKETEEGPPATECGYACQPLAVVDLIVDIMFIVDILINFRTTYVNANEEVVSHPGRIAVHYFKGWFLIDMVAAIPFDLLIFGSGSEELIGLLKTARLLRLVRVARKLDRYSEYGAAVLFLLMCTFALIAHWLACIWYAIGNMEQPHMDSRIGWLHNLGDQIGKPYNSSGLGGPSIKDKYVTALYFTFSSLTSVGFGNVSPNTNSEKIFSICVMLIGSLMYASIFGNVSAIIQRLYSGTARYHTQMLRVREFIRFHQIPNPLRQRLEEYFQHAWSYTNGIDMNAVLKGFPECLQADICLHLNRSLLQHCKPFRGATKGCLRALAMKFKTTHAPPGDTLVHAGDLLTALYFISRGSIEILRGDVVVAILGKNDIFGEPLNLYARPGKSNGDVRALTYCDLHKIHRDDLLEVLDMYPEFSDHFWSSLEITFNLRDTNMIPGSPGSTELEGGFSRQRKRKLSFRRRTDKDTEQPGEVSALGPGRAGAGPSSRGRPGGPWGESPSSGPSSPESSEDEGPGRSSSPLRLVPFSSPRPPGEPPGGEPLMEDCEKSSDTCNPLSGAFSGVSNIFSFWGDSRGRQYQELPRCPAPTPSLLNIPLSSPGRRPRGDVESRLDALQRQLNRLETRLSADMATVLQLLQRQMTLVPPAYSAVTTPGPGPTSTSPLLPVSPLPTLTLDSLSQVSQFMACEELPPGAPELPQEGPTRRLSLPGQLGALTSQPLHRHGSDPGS
# protocolDetails: primary screen, population patch clamp on CHO cells stably expressing hERG; higher = less effect of the substance
In all, about 310,000 compounds went through this assay and about 14,000 (4.5%) showed an effect of 50% or more. Effects have a minus sign here. Only a selection was taken, and strong results are over-represented in it overall.
readoutType: hERG current change (%, negative = inhibition) at 10uM (%)
Answer with a number only, understood to be in %.

Recorded hERG current change (%, negative = inhibition) at 10uM, per entry:
# compound, result
rows = [
    ("CC(=O)Nc1ccc(S(=O)(=O)NCC(=O)OCC(=O)N2CCCc3ccccc32)cc1", 4.4),
    ("COc1ccc(/C=N/NC(=O)c2c(C)nc3ccc(Br)cn23)cc1OC", -0.597),
    ("Cc1ccc(CNC(=O)NC23CC4CC(CC(C4)C2)C3)cc1", 7.24),
    ("COc1ccc(N2CCN(C(CNC(=O)Oc3ccccc3)c3cccnc3)CC2)cc1 (stereo not shown)", -27.5),
    ("C=CCn1cc(C(=O)NCCCOC)c(=O)c2cc(S(=O)(=O)N(CC)CC)ccc21", -30.5),
    ("CC(=O)N/C(=C\\c1ccccc1)C(=O)OCc1ccc(F)cc1", -0.974),
]

Please tell me: hERG current change (%, negative = inhibition) at 10uM of "C=CCn1c(=N)c(C(=O)NCCCOC)cc2c(=O)n3cccc(C)c3nc21" , system human ether-à-go-go-related gene (hERG) potassium channel (human, UniProt Q12809)? -73.5

Also, CC(C)COP(=O)(OCC(C)C)C(O)c1ccccc1F (stereo not shown) please. -1.27

Also, CC(C)CC(C(=O)NC(=O)NCc1ccccc1)N1C(=O)c2ccccc2C1=O (stereo not shown) please. 8.22

Also, O=S(=O)(NCC(c1cccnc1)N1CCOCC1)c1cccs1 (stereo not shown) please. -10.9

----------
# systemName: human ether-à-go-go-related gene (hERG) potassium channel (human, UniProt Q12809)
# protocolDetails: primary screen, population patch clamp on CHO cells stably expressing hERG; higher = less effect of the substance
Hit rate of the full screen: of about 310,000 compounds, about 14,000 (4.5%) showed an effect of 50% or more. The effect is printed as a negative number. For the sample, strong results were picked, then their nearest neighbours and some compounds at random.
Listed here: items and their measured hERG current change (%, negative = inhibition) at 10uM.
Answer with a number only, understood to be in %.

# smilesEntry, systemName, result
data = [
    ("Cc1cc(N/N=C/c2ccc(O)cc2O)c2ccccc2n1", "human ether-à-go-go-related gene (hERG) potassium channel (human, UniProt Q12809)", 4.97),
    ("COc1ccccc1/C=N/Nc1cc(C)nc2ccc(C)cc12", "human ether-à-go-go-related gene (hERG) potassium channel (human, UniProt Q12809)", 7.89),
    ("N#Cc1nc(-c2ccccc2)oc1N1CCC(C(N)=O)CC1", "human ether-à-go-go-related gene (hERG) potassium channel (human, UniProt Q12809)", 9.26),
]

Which hERG current change (%, negative = inhibition) at 10uM value is on record for "COc1cccc2c(N/N=C/c3ccc(O)c(O)c3)cc(C)nc12" ? 18.9

Also, "O=C(/C=C/c1ccc(NC(=O)c2ccccc2-c2ccccc2C(=O)O)cc1)c1ccccc1" please. 25.7

Also, "Cc1cc(N/N=C/c2ccccc2O)c2ccccc2n1" please. -72.5

----------
# systemName: human ether-à-go-go-related gene (hERG) potassium channel (human, UniProt Q12809);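 further: peak tail current of the secondary pulse compared with the same well before compound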
# protocolDetails: primary screen, population patch clamp on CHO cells stably expressing hERG; higher = less effect of the substance
The campaign covered roughly 310,000 compounds. About 14,000 (4.5%) showed an effect of 50% or more. The effect is printed as a negative number. This excerpt belongs to a sample that is enriched for strong results.
Listed here: items and their measured hERG current change (%, negative = inhibition) at 10uM.
Answer with a number only, understood to be in %.

# molecule, result
data = [
    ("c1ccc(-c2ccc3nnnn3n2)cc1", 5.72),
    ("O=C(CCN1CCN(c2ccccc2)CC1)Nc1ccccc1", -22.9),
    ("c1ccc(Sc2ncccn2)nc1", 12.2),
]

Which hERG current change (%, negative = inhibition) at 10uM value is on record for COCCCNC(=O)c1cc2c(=O)n3cc(C)ccc3nc2nc1NCC1CCCO1 (centres unmarked) ? -71.9

Also, CC1(C)Cc2c(cnn2-c2cccc(F)c2)C(NC(=O)CSc2ccncc2)C1 (centres unmarked) please. -56.5

Also, Cc1ccc(-c2noc(-c3ccccc3C(=O)NCC3CCCO3)n2)cc1 (centres unmarked) please. -18.6

Also, "CCOC(=O)c1ccc(Oc2nc(OC)nc(N(C)C)n2)cc1" please. 6.27

Also, "CCOCCCNC(=O)Cc1ccc(-n2c(CC)nc3cccnc32)cc1" please. -8.18

Also, CCN(Cc1ccccc1)C(=O)c1ccc(CS(=O)c2ccccc2C)o1 (centres unmarked) please. -43.9

----------
# systemName: human ether-à-go-go-related gene (hERG) potassium channel (human);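 further: peak tail current of the secondary pulse compared with the same well before compound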
# protocolDetails: primary screen, population patch clamp on CHO cells stably expressing hERG; higher = less effect of the substance
Among all 310,000 compounds or so, about 14,000 (4.5%) showed an effect of 50% or more. Effects have a minus sign here. The sample holds strong results, similar compounds and a random draw of the others, so the mix is not that of the screen.
readoutType: hERG current change (%, negative = inhibition) at 10uM (%)
Answer with a number only, understood to be in %.

Recorded hERG current change (%, negative = inhibition) at 10uM, per entry:
# molecule, unitsSymbol, result
records = [
    ("Cc1ccccc1C(=O)NCCCc1ccccc1", "%", 12.5),
    ("Cc1c(N(C)C)nc2ccccc2c1N.O=C(O)C(=O)O", "%", -46.5),
    ("Cc1nn(-c2ccccc2)c2c1C1(C(=O)N(C(C)C)c3ccccc31)C(C#N)=C(N)O2 (centres unmarked)", "%", -1.88),
    ("CCOC(=O)C1(CCOc2ccccc2)CCN(Cc2cccc(F)c2)CC1", "%", -65.4),
    ("O=C(Nc1ccc(/C=C/c2nc3ccccc3o2)cc1)c1cccc(C(F)(F)F)c1", "%", 0.151),
]

Which hERG current change (%, negative = inhibition) at 10uM value is on record for O=C(CSc1nc2c(c(=O)n1-c1ccc(Br)cc1)SCC2)NCC1CCCO1 (centres unmarked) ? -60.9

Also, "Cc1ccc(NC(=O)COc2ccccc2C(=O)NCc2ccccc2)cc1" please. -31.1

Also, "CCN(CC)c1nc2ccccc2c(N)c1-c1ccccc1.O=C(O)C(=O)O" please. -77

Also, "Cc1cc(C)nc(SCc2nnc(SCC(=O)NCc3ccco3)n2-c2ccccc2)n1" please. -14.5

Also, "O=C(CSc1nnc(-c2cccs2)n1-c1ccccc1)NCc1ccco1" please. -73

Also, "CCOC(=O)c1c(CCl)nc2ccccc2c1-c1ccccc1" please. 5.72

----------
# systemName: human ether-à-go-go-related gene (hERG) potassium channel (human, UniProt Q12809);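 further: peak tail current of the secondary pulse compared with the same well before compound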
# protocolDetails: primary screen, population patch clamp on CHO cells stably expressing hERG; higher = less effect of the substance
In all, about 310,000 compounds went through this assay and about 14,000 (4.5%) showed an effect of 50% or more. Effects have a minus sign here. The full list was thinned out, with strong results kept by preference.
Decision: hERG current change (%, negative = inhibition) at 10uM compared against 10%; not below it gives met, below it gives not met.

Take a look at these entries with their results.
# molecule, label
measured = [
    ("CN(C)S(=O)(=O)c1ccc(C(=O)Nc2cc(S(=O)(=O)Nc3ccccc3Cl)ccc2N2CCCCC2)cc1", "met"),
    ("Cc1ccc(Cn2c(=N)c(C(=O)NC3CCCC3)cc3c(=O)n4ccccc4nc32)cc1", "not met"),
    ("Cc1ccc(Cn2c(=N)c(S(=O)(=O)c3ccc(Br)cc3)cc3c(=O)n4ccccc4nc32)cc1", "not met"),
]

Quick check, hERG current change (%, negative = inhibition) at 10uM >= 10%? CC1CCCC(C(=O)O)N1C(=O)CCSC(=O)c1ccccc1 (stereo not drawn) not met

Also, "Cc1ccc(Cn2c(=N)c(C(=O)NC3CCCCC3)cc3c(=O)n4ccccc4nc32)cc1" please. not met

Also, "C/C(=N\NC(=O)c1ccc(C)cc1)c1c(C)[nH]n(-c2ccccc2)c1=O" please. met

Also, "O=C(Cc1ccccc1)N/N=C/c1ccc(S(=O)(=O)[O-])o1" please. met

Also, "Cc1nc(SCC(N)=O)[nH]c(=O)c1Cc1ccc(OC(C)C)cc1" please. not met

----------
# systemName: human ether-à-go-go-related gene (hERG) potassium channel (human, UniProt Q12809);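 further: peak tail current of the secondary pulse compared with the same well before compound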
# protocolDetails: primary screen, population patch clamp on CHO cells stably expressing hERG; higher = less effect of the substance
The campaign covered roughly 310,000 compounds. About 14,000 (4.5%) showed an effect of 50% or more. The effect is printed as a negative number. For the sample, strong results were picked, then their nearest neighbours and some compounds at random.
readoutType: hERG current change (%, negative = inhibition) at 10uM (%)
Answer with a number only, understood to be in %.

Recorded hERG current change (%, negative = inhibition) at 10uM, per entry:
# molecule, unitsSymbol, result
records = [
    ("CC(=O)c1cccc(NC(=O)CCS(=O)(=O)c2cc3c(cc2C)NC(=O)CO3)c1", "%", 1.62),
    ("CCc1cccc(NC(=O)CCS(=O)(=O)c2cc3c(cc2C)NC(=O)CO3)c1", "%", -14.1),
]

Which hERG current change (%, negative = inhibition) at 10uM value is on record for "CC(C)CNC(=S)N1CCC(NC(=O)C23CC4CC(CC(C4)C2)C3)CC1" ? -7.73

Also, Cc1cc2c(cc1S(=O)(=O)CCC(=O)NC1CCC(C)CC1)OCC(=O)N2 (centres unmarked) please. -14.7

Also, "O=c1cc(CCl)[nH]c2nc3ccccc3n12" please. -6.02
